Parameter relative IC50: see the listing below.
- Tested on: S1507-2
- protocol_text: relative IC50 (inflection point of fitted dose-response curve, CellTiter-Glo viability, 72 h; top asymptote may be below 50% inhibition); higher = less potent
// return numeric value only (unit: nM, not printed)

Some solved entries appear below for comparison.
compound	target_system	relative IC50, nM
COc1cccc2c1C(=O)c1c(O)c3c(c(O)c1C2=O)C[C@@](O)(C(=O)CO)C[C@@H]3O[C@H]1C[C@H](N)[C@H](O)[C@H](C)O1 [Doxorubicin]	S1507-2	72.5
COc1cc2c(Oc3ccc(NC(=O)C4(C(=O)Nc5ccc(F)cc5)CC4)cc3F)ccnc2cc1OCCCN1CCOCC1 [Foretinib]	S1507-2	138
COc1cc(Nc2ncc3c(n2)-c2ccc(Cl)cc2C(c2c(F)cccc2OC)=NC3)ccc1C(=O)O [Alisertib]	S1507-2	124
Cn1cnc2c(F)c(Nc3ccc(Br)cc3Cl)c(C(=O)NOCCO)cc21 [Selumetinib]	S1507-2	301
O=C(Cc1ccc(-c2ccc(OCCN3CCOCC3)cc2)cn1)NCc1ccccc1 [KX2-391]	S1507-2	46.7
O=[N+]([O-])c1ccc2c(c1)S(=O)(=O)C=C2 [Stattic]	S1507-2	9570

// CC[C@@]1(O)C(=O)OCc2c1cc1n(c2=O)Cc2cc3ccccc3nc2-1 [Camptotechin] : relative IC50 value = 100
